Target: T1, Human VE-PTP (HPTP-β) containing first eight FN3 repeats with C-terminal His6 tag (Human ½ VE-PTP ECD) (human, UniProt P23467 23-820)
T1 construct: Produced in HEK293 cells and purified by the His tag; it was not cut off; also called Human Beta ½ ECD
T1 sequence: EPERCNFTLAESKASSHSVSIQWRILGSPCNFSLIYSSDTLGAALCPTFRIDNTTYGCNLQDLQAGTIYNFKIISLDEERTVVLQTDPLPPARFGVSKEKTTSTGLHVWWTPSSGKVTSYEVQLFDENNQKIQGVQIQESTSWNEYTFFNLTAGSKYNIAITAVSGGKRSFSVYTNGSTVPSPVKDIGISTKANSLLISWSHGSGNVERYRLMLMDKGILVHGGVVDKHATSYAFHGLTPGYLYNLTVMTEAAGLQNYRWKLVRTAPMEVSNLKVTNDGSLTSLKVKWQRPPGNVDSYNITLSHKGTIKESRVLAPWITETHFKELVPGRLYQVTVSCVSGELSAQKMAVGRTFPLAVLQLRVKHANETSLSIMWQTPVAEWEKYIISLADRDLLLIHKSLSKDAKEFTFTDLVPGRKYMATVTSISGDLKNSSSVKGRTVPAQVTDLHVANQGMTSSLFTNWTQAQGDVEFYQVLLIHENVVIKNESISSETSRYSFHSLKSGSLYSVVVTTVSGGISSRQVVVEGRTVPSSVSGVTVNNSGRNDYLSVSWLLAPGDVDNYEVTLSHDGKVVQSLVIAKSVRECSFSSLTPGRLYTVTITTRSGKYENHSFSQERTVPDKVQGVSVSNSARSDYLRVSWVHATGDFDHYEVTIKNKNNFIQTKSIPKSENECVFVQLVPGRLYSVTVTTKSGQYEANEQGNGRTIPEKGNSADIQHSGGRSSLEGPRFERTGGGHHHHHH
Assay: ELISA, antigen coated at 1 µg/mL, antibody 1 µg/well
// classify: if (ELISA value (absorbance at 450 nm) < 2) MET else NOT MET

Solved cases (4 shown):
{"binder": "murine monoclonal antibody R15E6 (antibody, V domains shown, Murine monoclonal antibody of hybridoma ATCC PTA-7580, 150 kDa; also called Parental; parental antibody) VH: EVQLVETGGGLVQPKGSMKLSCAASGFTFNANAMNWIRQAPGKGLEWVARIRTKSNNYATYYAGSVKDRFTISRDDAQNMLYLQMNDLKTEDTAMYYCVRDYYGSSAWITYWGQGTLVTVSA VL: DIVMTQSHKFMSTSVGDRVSITCKASQHVGTAVAWYQQKPDQSPKQLIYWASTRHTGVPDRFTGSGSGTDFTLTISNVQSEDLADYFCQQYSSYPFTFGSGTKLEIK", "category": "NOT MET"}
{"binder": "humanized R15E6 variant HC1LC4 (antibody, human IgG4 S228P, kappa, V domains shown, Human IgG4 (S228P) / kappa, expressed in CHO cells; Signal peptides left out by range; also called VH1-VL4) VH: EVQLVESGGGLVQPGGSLKLSCAASGFTFNANAMNWVRQASGKGLEWVGRIRTKSNNYATYYAGSVKDRFTISRDDSKNTAYLQMNSLKTEDTAAYYCVRDYYGSSAWITYWGQGTLVTVSS VL: DIVMTQSPDSLAVSLGERATINCKASQHVGTAVAWYQQKPEQPPKLLIYWASTRHTGVPDRFSGSGSGTDFTLTISSLQAEDVAVYYCQQYSSYPFTFGGGTKVEIKR", "category": "MET"}
{"binder": "humanized R15E6 variant HC2LC4 (antibody, human IgG4 S228P, kappa, V domains shown, Human IgG4 (S228P) / kappa, expressed in CHO cells; Signal peptides left out by range; also called VH2-VL4) VH: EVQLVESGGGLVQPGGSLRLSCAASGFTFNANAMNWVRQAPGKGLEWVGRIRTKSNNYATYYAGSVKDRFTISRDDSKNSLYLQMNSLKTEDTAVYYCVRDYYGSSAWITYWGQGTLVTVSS VL: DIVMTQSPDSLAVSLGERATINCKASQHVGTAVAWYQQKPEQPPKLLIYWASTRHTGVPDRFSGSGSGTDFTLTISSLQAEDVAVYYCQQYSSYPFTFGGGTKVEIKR", "category": "MET"}
{"binder": "humanized R15E6 variant HC2LC3 (antibody, human IgG4 S228P, kappa, V domains shown, Human IgG4 (S228P) / kappa, expressed in CHO cells; Signal peptides left out by range; also called VH2-VL3) VH: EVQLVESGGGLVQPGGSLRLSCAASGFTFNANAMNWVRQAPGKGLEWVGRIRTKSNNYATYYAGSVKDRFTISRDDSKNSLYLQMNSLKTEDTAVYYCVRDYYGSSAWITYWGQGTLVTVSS VL: DIQMTQSPFSLSASVGDRVTITCKASQHVGTAVAWYQQKPGKAPKLLIYWASTRHTGVPSRFSGSGSGTDFTLTISSLQPEDFATYFCQQYSSYPFTFGGGTKLEIKR", "category": "MET"}

Is ELISA value (absorbance at 450 nm) strictly under 2 for the entry mouse/human chimeric antibody HC0LC0 (antibody, human IgG4 S228P, kappa, V domains shown, Murine variable domains of R15E6 on human IgG4 (S228P) and kappa constant domains, expressed in CHO cells; also called VH0-VL0) VH: EVQLVETGGGLVQPKGSMKLSCAASGFTFNANAMNWIRQAPGKGLEWVARIRTKSNNYATYYAGSVKDRFTISRDDAQNMLYLQMNDLKTEDTAMYYCVRDYYGSSAWITYWGQGTLVTVSA VL: DIVMTQSHKFMSTSVGDRVSITCKASQHVGTAVAWYQQKPDQSPKQLIYWASTRHTGVPDRFTGSGSGTDFTLTISNVQSEDLADYFCQQYSSYPFTFGSGTKLEIKR ?
MET
